Quick list: Papp B→A at 2 h, 10 μM per entry.
# METHOD: in vitro
# EXPERIMENTAL SETUP: human, Caco-2

{"MOLECULE": "CCc1cc2ncc(CN3CC=C(c4ccc(C(=O)NC)nc4C#N)CC3)cc2[nH]c1=O [Example 35]", "UNITS LABEL": "×10⁻⁶ cm/s", "Papp B→A at 2 h, 10 μM": 15.7}
{"MOLECULE": "CNC(=O)c1ccc(C2=CCN(Cc3cnc4cc(C5CC5)c(=O)[nH]c4c3)CC2)cn1 [Example 45]", "UNITS LABEL": "×10⁻⁶ cm/s", "Papp B→A at 2 h, 10 μM": 15.3}
